test system: MDA-MB-435; experiment: NCI tumour cell line growth inhibition, 48 h
Activity calls are given as the source filed them. Cut-off read from the data, not from the text of the source: active = GI50 up to about 1.1 µM and inactive = higher.
Reported GI50 values for the following compounds.

compound	GI50
C=C(C)C(O)C(O)C[C@@H](C)C1CC[C@]23C[C@]12CCC1[C@@]2(C)CCC(OC(C)=O)C(C)(C)C2CC(OC2OC(CO)C(O)C(O)C2O)[C@]13C (stereo not given in full)	17.5 µM (inactive)
COc1cc2c(cc1OC)CC1c3cc(OC)c(OC)cc3CCN1CC2 (stereo not given)	40.3 µM (inactive)
CCOC(=O)C(C)(C)C(O)C(C)C (stereo not given)	> 100 µM (inactive)
COCOc1c(C(O[Si](C)(C)C(C)(C)C)c2cnc(Sc3ccccc3)n2C)ccc(OC)c1OC (stereo not given)	1.75 µM (inactive)
CCOC(O)(NC(=O)C(C(F)(F)F)C(F)(F)F)C(F)(F)F (stereo not given)	> 100 µM (inactive)
C=C1CC(C)(c2ccc(Nc3nc4ccccc4c4occc34)cc2)OC1=O (stereo not given)	1.91 µM (inactive)

Reported GI50 for Cc1cn(CCC(N)C(=O)O)c(=O)[nH]c1=O (stereo not given) : what is it?
> 100 µM (inactive)

Now this one: CCCCn1c(C)c(C(=O)CC)c(C(=O)NCCN2CCN(c3ccccc3Cl)CC2)c1C
18.9 µM (inactive)

Now this one: C#C[C@]1(O)CC[C@H]2[C@@H]3CCC4=C/C(=N\OCCN5CCCCC5)CC[C@]4(C)[C@H]3CC[C@@]21C
2.24 µM (inactive)

Now this one: CCCCNC(=O)Nc1c(C(N)=O)c2n(c1C(=O)OCC)CCCCC2
> 100 µM (inactive)

====

Reported GI50 values for the following molecules.
tested on: KM-20L2; experiment: NCI tumour cell line growth inhibition, 48 h
Active and inactive are the calls of the source. No stated cut-off is given here; in the data, active = GI50 up to about 1.1 µM and inactive = higher.

molecule	subject-of-test	GI50
CN(NC1OC(CO)C(O)C(O)C1O)c1ccccc1 (stereo unspecified)	KM-20L2	> 100 µM (inactive)

Reported GI50 for O=C(c1ccccc1)c1c(CC(O)c2cccnc2)n(C(=O)c2ccccc2)c2ccccc12 (stereo unspecified) : what is it?
21.3 µM (inactive)

Now this one: CNC(C)Cc1ccc(O)cc1 (stereo unspecified)
> 100 µM (inactive)

Now this one: O=C(/C=C/c1ccccc1O)c1cccs1
> 100 µM (inactive)

Now this one: CC1CC(c2ccc([N+](=O)[O-])cc2)=Nc2ccccc2S1 (stereo unspecified)
18.4 µM (inactive)

Now this one: CCCCC#COS(=O)(=O)c1ccc(C)cc1
75.9 µM (inactive)

====

Reported GI50 values for the following compounds.
test system: A498; assay: NCI tumour cell line growth inhibition, 48 h
Activity calls are given as the source filed them. No stated cut-off is given here; in the data, active = GI50 up to about 1.1 µM and inactive = higher.

Examples with answers:
compound	observed
CCOC(=O)NN1C(=O)C(=P(c2ccccc2)(c2ccccc2)c2ccccc2)C(C(=O)OC)=C1C	> 100 µM (inactive)
O=c1c2cc(Br)ccc2nc(CNc2ccccc2)n1-c1ccccc1	34.6 µM (inactive)
CCCCn1c(C)c(C(=O)CC)c(C(=O)NCCN2CCN(c3ccccc3Cl)CC2)c1C	17.5 µM (inactive)
COc1ccc(/N=N/N2CCCC2)cc1	> 100 µM (inactive)
CN(Cc1cnc2nc(N)nc(N)c2n1)c1ccc(C(=O)NC(CCC(=O)NCCC(P(=O)(O)O)P(=O)(O)O)C(=O)O)cc1 (stereo not given)	78 µM (inactive)

Please look at the following compound next.
Reported GI50 for Nc1ccc2nc3n(c2c1)C(c1c(F)cccc1F)SC3 (stereo not given) : what is it?
> 100 µM (inactive)
